# key: entry, value: EC50
Biological target: LXRβ (Homo sapiens (Human))
Sequence (P55055 whole entry, the tested form may be a part): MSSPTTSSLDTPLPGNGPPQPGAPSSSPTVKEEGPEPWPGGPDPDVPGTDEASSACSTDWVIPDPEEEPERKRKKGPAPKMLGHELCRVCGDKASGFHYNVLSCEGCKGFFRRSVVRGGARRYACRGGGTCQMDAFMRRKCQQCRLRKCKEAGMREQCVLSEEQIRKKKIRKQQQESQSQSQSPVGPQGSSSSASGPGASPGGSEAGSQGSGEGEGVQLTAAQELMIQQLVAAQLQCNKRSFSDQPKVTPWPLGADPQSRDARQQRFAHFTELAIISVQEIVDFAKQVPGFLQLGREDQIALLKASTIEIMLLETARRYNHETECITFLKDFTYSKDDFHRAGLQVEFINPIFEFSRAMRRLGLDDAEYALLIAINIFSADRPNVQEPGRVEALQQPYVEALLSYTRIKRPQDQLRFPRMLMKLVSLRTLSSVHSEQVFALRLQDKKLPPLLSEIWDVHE
Assay: In vitro assay LXRβ: PathHunter NHR CHO cells, LXRβ / Steroid Receptor Co-activator Peptide enzyme fragment complementation
Assay type: cell-based
Settings: PathHunter NHR CHO cells, full-length human LXRβ and SRCP, chemiluminescent signal; read-out: LXRβ PPI
From the text: PathHunter NHR CHO cells stably transfected with tagged full-length human LXRβ and a nuclear fusion protein containing Steroid Receptor Co-activator Peptide (SRCP). […] Microplates were read following signal generation with a PerkinElmer Envision instrument for chemiluminescent signal detection.

Consider the reported EC50 for these molecules:
# MOLECULE, EC50
records = [
    ("C[C@H]1CCN(C(=O)CC[C@@H](C)[C@H]2CC[C@H]3[C@@H]4CC=C5C[C@@H](O)CC[C@]5(C)[C@H]4CC[C@]23C)C1", "250 to 1000 nM"),
    ("C[C@H](CCC(=O)N1CCC(Oc2cccnc2)CC1)[C@H]1CC[C@H]2[C@@H]3CC=C4C[C@@H](O)CC[C@]4(C)[C@H]3CC[C@]12C", "> 10000 nM"),
    ("C[C@H](CCC(=O)N(C)C)[C@H]1CC[C@H]2[C@@H]3CC=C4CC(F)(F)CC[C@]4(C)[C@H]3CC[C@]12C", "> 10000 nM"),
    ("C[C@H](CCC(=O)N1CCC[C@H](c2ccccc2)C1)[C@H]1CC[C@H]2[C@@H]3CC=C4C[C@@H](O)CC[C@]4(C)[C@H]3CC[C@]12C", "1000 to 10000 nM"),
]

Next item in the queue.
# input Provide measured EC50 value, entry: CC(O)C1CCN(C(=O)CC[C@@H](C)[C@H]2CC[C@H]3[C@@H]4CC=C5C[C@@H](O)CC[C@]5(C)[C@H]4CC[C@]23C)CC1 (some centres unmarked)
# output 250 to 1000 nM
